Item-by-item account of koff
assay.system: T1, Recombinant human Dkk-1 (R&D Systems cat no. 1096-DK/CF), 10xHis tag at the C terminal (human, UniProt O94907 32-266)
T1 construct: the actual N-terminus of the purified protein is marked in bold italic after residue 30, but the mark is an image lost in the text; also called rhuDkk-1; hDkk-1
T1 sequence: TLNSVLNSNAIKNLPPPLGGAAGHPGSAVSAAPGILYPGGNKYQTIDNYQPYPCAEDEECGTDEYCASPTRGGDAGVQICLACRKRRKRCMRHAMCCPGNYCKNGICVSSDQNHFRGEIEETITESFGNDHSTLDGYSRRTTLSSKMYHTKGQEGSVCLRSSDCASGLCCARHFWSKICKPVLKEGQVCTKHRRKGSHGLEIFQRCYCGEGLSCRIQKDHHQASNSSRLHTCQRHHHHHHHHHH
experiment: SPR screening 37C (BIAcore/ProteOn), Fab lysate over biotinylated human Dkk-1
Enter your answer as a number in s⁻¹; do not include the unit.

binder	koff (s⁻¹)
SL3.1F12 (Fab, V domains shown, tested as Fab (E. coli lysate, screening mode); human kappa CL and IgG2 CH1 not included here) VH: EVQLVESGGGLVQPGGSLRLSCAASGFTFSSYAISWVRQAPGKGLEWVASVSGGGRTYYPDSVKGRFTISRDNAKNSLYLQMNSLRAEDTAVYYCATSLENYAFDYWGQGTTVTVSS VL: EIVLTQSPATLSLSPGERATLSCRASESVDDFGISFMNWYQQKPGQAPRLLIYAASKQGSGIPARFSGSGSGTDFTLTISSLEPEDFAVYYCQQSKEVPPYFGGGTKVEIK	0.00552
L2.1D12 (Fab, V domains shown, tested as Fab (E. coli lysate, screening mode); human kappa CL and IgG2 CH1 not included here) VH: EVQLVESGGGLVQPGGSLRLSCAASGFTFSSYAISWVRQAPGKGLEWVASVSGWFDTYYPDSVKGRFTISRDNAKNSLYLQMNSLRAEDTAVYYCATSLQNYAFDYWGQGTTVTVSS VL: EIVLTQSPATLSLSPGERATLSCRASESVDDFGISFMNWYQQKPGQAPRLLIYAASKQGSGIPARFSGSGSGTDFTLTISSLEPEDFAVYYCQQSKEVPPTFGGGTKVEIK	0.00278

Notebook: L3.1D7 (Fab, V domains shown, tested as Fab (E. coli lysate, screening mode); human kappa CL and IgG2 CH1 not included here) VH: EVQLVESGGGLVQPGGSLRLSCAASGFTFSSYAISWVRQAPGKGLEWVASVSGWFRTYYPDSVKGRFTISRDNAKNSLYLQMNSLRAEDTAVYYCATSLRNYAFDYWGQGTTVTVSS VL: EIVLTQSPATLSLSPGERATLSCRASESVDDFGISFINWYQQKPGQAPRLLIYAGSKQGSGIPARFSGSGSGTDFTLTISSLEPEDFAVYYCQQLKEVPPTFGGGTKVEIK , koff read as 0.000164

Data provenance is patent US20130071921A1.
